target: T1, AFP158/HLA-A*02:01 complex (human); experiment: SPR; vs AS170036 VL1VH1;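 note: crude scFv captured on sensor chip, peptide–HLA complex flowed over at several concentrations, KD estimated from association and dissociation kinetic rates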
T1 construct: biotinylated on the BSP by BirA for ELISA and panning; also called biotinylated AFP158/HLA-A*02:01 complex; Bio-AFP158
We begin with a simple list: items and their reported Affinity increase.
measure: Affinity increase (fold)

* AS170036 VL1VH1-VHS57K (scFv) scFv: QSALTQPRSVSGSPGQSVTISCAGTSSDVGSENYVSWYQQHPGKAPKLMIYQVNKRASGVPDRFSGSKSGNTASLTISGLQAEDEADYYCASYRSSDHNIVFGGGTKLTVLGGGGSGGGGSGGGGSEVQLVESGGGLVQPGGSLRLSCAASGFTFSSYAMSWVRQAPGKGLEWVSTINSGTGKPYYADSVKGRFTISRDNSKNTLYLQMNSLRAEDTAVYYCAKNFFDGSWFLGPPAMDYWGQGTLVTVSSHHHHHH | 4.4
* AS170036 VL1VH1 HG56V (scFv) scFv: QSALTQPRSVSGSPGQSVTISCAGTSSDVGSENYVSWYQQHPGKAPKLMIYQVNKRASGVPDRFSGSKSGNTASLTISGLQAEDEADYYCASYRSSDHNIVFGGGTKLTVLGGGGSGGGGSGGGGSEVQLVESGGGLVQPGGSLRLSCAASGFTFSSYAMSWVRQAPGKGLEWVSTINSGTVSPYYADSVKGRFTISRDNSKNTLYLQMNSLRAEDTAVYYCAKNFFDGSWFLGPPAMDYWGQGTLVTVSSHHHHHH | 0.4
